property.label: melting point

[[record]]
compound = "CN(C)CCCOc1ccc(-c2nc3ccc(-c4nc5ccc(N6CCN(C)CC6)cc5[nH]4)cc3[nH]2)cc1 [Compound 2b]"
property_label = "melting point"
reported_result = "171 to 172 °C"

[[record]]
compound = "COCCOc1ccc(-c2nc3ccc(-c4nc5ccc(N6CCN(C)CC6)cc5[nH]4)cc3[nH]2)cc1 [Compound 2d]"
property_label = "melting point"
reported_result = "208 to 209 °C"

[[record]]
compound = "CN(C)CCOc1ccc(-c2nc3ccc(-c4nc5ccc(N6CCN(C)CC6)cc5[nH]4)cc3[nH]2)cc1 [Compound 2c]"
property_label = "melting point"
reported_result = "197 to 198 °C"

[[record]]
compound = "CN1CCC(Oc2ccc(-c3nc4ccc(-c5nc6ccc(N7CCN(C)CC7)cc6[nH]5)cc4[nH]3)cc2)CC1 [Compound 2a]"
property_label = "melting point"
reported_result = "165 to 166 °C"


Now for a further compound.
melting point for CN1CCN(c2ccc3nc(-c4ccc5nc(-c6ccc(OCCC(C)(C)C)cc6)[nH]c5c4)[nH]c3c2)CC1 [Compound 2e] ?
247 to 248 °C
